- TARGET_SYSTEM: Transient receptor potential cation channel subfamily V member 1 (Homo sapiens) (UniProt Q8NER1)
- Sequence (Q8NER1 whole entry, looked up): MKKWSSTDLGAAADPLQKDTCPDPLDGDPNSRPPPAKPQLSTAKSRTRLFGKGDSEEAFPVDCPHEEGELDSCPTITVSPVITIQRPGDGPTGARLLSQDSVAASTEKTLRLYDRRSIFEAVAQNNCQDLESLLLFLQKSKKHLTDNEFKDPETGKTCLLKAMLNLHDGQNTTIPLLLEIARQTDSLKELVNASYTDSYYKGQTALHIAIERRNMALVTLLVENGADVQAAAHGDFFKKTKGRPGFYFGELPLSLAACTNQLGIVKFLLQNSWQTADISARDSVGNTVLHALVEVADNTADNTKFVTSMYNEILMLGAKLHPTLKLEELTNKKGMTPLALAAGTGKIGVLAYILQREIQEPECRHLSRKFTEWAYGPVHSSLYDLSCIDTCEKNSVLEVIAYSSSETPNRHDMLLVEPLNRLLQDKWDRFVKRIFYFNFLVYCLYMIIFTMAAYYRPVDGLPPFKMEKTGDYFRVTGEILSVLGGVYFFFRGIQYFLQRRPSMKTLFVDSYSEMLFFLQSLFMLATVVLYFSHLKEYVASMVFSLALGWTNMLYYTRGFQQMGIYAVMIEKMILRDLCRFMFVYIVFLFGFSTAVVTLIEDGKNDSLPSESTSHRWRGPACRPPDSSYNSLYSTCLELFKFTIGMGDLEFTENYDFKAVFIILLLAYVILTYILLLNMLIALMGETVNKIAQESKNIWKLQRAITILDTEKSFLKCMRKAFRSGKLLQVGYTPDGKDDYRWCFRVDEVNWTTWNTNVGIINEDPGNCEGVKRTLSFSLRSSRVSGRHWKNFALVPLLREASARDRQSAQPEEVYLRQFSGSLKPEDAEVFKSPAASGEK
- TEST_DETAILS: allosteric agonists potentiating TRPV1 currents, confirmation, QPatch automated patch clamp, HEK293 cells (AID 602331)
- SETUP_CONDITIONS: HEK293-TRPV1 QPatch current potentiation, +100 mV, capsaicin; at 10 µM
The source made the active and inactive calls.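 The calls were made as follows: active = compound boosting capsaicin-evoked TRPV1 current more than 1.5 times over the capsaicin response; inactive = the rest.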
Bench note: report the call from active, inactive

• CC(=O)Nc1cccc(C(=O)OCC(=O)NCc2cc(C)c(O)c(C)c2)c1 = inactive

Exercise: What classification did `O=C(CNc1cccc(S(=O)(=O)N2CCOCC2)c1)Nc1cccc(Br)c1` end up with in this test?
Solution: inactive

Exercise: Please let me know the test result on file for `CC1=C(C)/C(=N\OS(=O)(=O)c2ccc(C)cc2)C=CC1=O` .
Solution: active

Exercise: Returns: the outcome recorded for `O=c1c(/C=N/OCc2ccc(Cl)cc2Cl)c[nH]n1-c1cccc(Cl)n1` in this assay.
Solution: inactive
